# key: entry, value: IC50
# TARGET OR SYSTEM: NLRP3 (Homo sapiens)
# Construct: endogenous in cells
# Sequence (Q96P20 whole entry): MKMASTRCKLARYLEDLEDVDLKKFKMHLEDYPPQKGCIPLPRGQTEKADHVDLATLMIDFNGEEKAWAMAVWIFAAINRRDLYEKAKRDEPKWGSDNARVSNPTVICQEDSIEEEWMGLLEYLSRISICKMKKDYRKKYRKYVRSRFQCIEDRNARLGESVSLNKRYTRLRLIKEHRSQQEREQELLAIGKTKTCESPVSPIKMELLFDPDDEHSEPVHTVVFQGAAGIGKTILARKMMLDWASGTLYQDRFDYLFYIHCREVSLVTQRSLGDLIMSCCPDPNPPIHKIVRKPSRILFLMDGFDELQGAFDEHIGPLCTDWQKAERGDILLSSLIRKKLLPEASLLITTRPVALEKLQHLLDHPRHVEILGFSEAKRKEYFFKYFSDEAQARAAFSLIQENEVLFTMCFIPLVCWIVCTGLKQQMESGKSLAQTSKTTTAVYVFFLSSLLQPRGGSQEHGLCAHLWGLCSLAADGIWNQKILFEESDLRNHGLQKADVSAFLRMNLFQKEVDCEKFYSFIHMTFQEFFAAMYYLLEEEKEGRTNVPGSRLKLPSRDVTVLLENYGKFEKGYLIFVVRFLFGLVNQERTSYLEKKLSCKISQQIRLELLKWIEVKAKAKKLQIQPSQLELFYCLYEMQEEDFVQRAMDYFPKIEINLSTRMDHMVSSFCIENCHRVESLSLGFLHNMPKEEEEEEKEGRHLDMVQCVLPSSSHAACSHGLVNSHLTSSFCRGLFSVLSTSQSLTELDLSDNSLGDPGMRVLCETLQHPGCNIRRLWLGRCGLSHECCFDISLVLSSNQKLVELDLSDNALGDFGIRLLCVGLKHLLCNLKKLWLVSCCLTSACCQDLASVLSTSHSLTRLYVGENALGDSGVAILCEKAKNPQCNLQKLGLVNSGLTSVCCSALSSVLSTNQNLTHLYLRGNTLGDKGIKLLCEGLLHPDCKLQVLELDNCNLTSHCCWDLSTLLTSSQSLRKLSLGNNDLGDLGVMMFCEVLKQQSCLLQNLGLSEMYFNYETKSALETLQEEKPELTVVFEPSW
# RUN DESCRIPTION: Human whole blood (hWB) NLRP3 assay
# ASSAY CONTEXT: LPS priming 1 μg/ml, ATP activation, read-out: hWB IC50 (raw activity data)
# Procedure: Heparin lithium coated tubes were used to collect blood from volunteers. Blood samples were distributed on 96 well plates using 90 μl per well. Priming was performed by adding 5 μl of LPS (O26:B6; Sigma L-2654) at a final concentration of 1 μg/ml for 4.5 hours in a humidified incubator with 37° C., 5% CO2. […] IL-10 levels in the supernatant were analyzed using a mesoscale discovery assay (MSD K151TUK) according to the manufacturers' instructions. […]
TEST READOUT: IC50 (µM)

- COMPOUND: "CC1(C)COCC[C@H]1Nc1nnc(-c2ccc(C(F)(F)F)cc2O)c2ccncc12 (single isomer, unassigned) [Compound 15B]"
  TEST READOUT: "IC50"
  READOUT UNITS: "µM"
  MEASUREMENT: 18
- COMPOUND: "CC1(C)COCC[C@H]1Nc1nnc(-c2ccc(C(F)F)cc2O)c2ccncc12 (single isomer, unassigned) [Compound 17B]"
  TEST READOUT: "IC50"
  READOUT UNITS: "µM"
  MEASUREMENT: 2.4
- COMPOUND: "Cc1ccc(-c2nnc(N[C@@H]3CCC(C)(C)OC3)c3cnccc23)c(O)c1 (single isomer, unassigned) [Compound 10B*]"
  TEST READOUT: "IC50"
  READOUT UNITS: "µM"
  MEASUREMENT: 7.9

The reported numbers originate from patent US12331048B2.
